- TARGET OF ASSAY: T1, PUF4 RNA-binding domain (Saccharomyces cerevisiae, UniProt P25339 537-888)
- T1 sequence: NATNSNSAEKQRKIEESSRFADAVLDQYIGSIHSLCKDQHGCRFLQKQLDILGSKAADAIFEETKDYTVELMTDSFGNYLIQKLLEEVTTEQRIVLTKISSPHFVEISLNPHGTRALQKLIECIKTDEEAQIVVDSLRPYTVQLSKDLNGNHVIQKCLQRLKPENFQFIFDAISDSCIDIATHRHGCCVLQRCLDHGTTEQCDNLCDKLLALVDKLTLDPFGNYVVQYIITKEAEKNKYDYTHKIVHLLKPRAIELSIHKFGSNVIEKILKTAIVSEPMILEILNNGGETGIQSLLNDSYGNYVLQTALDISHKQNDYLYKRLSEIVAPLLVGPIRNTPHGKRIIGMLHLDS
- TEST SUMMARY: Mg; RNA-MaP; 20 mM Na-HEPES pH 7.4, 30 mM KOAc, 0.75 mM MgCl2, 0.1% Tween-20, 5% glycerol, 0.1 mg/mL BSA, 2 mM DTT; 25 C; 0.0125-409.6 nM protein
- TEST SETTINGS: tags: N-His6-TEV cleaved; C-SNAP kept, Cy3B-labelled; label: tethered on chip by stalled RNA polymerase
ASSAY ENDPOINT: pKd
Scale note: pKd = -log10(concentration in M).

UCUCUUUGUACAAUCUCUCUU (ssRNA) [Ic_S1_P4E.1_K4.1_C4.1_H4.1_A4.1_[T5C]_[T7A]_F4.1_[A9C]_T4.1] :: 7.78

Item under review: Id_ii_S4_P4E.2_K4.1_C4.2_[C-2T]_[T-1A]_H4.1_A4.1_F4.1_T4.2_[G10T]_[T11C] (ssRNA) RNA: UUUGACAACUGAUCGUUCUUUCUUAUGUAUAUUAUCUUCUUUCUCGAUCAGUUGUCUUU . Reported pKd?
9.46

Field request: pKd | item: Ia_S2_P5E.1_K5.1_C5.1_H5.1_A5.1_F5.1_[T8G]_T5.1 (ssRNA) RNA: UUUGAUUAAUAUGAUAUCGUUCUUUCUUGUAUUAGUAUUCUUUCUCGAUAUCAUAUUAAUCUUU
7.57
